test-target: dAsCas12a E174R (Acidaminococcus sp., UniProt U2UMQ6 1-1307, E174R;D908A;E993A;D1235A)
method-notes: Spec-seq (native PAGE EMSA with sequencing of bound and unbound); 25 mM Tris-HCl pH 7.4, 150 mM KCl, 5 mM MgCl2, 10% glycerol, 1 mM DTT, 40 ng/uL salmon sperm DNA; 400 nM Cas12a, 480 nM crRNA, 50 nM library, 37 C 1 h; native PAGE at room temperature; high values mean tight binding;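 further: relative affinity from the bound to unbound sequence frequency ratio in Spec-seq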
setup-conditions: protein: recombinant
readout-label: binding signal (lnKA)
The answer is to be given in lnKA; state only the numeric part.

*Q* Name the reported binding signal value associated with the binder ATAG (dsDNA) DNA 1: GCTATCTAGTGCTCAGTACGCACTGATAGAGGAAACTTCTGGCAGGACCAGGTCATGAGATCGGAAGAGCACACGTCTGAACTCCAGTCA DNA 2: TGACTGGAGTTCAGACGTGTGCTCTTCCGATCTCATGACCTGGTCCTGCCAGAAGTTTCCTCTATCAGTGCGTACTGAGCACTAGATAGC RNA: AAUUUCUACUCUUGUAGAUAGGAAACUUCUGGCAGGACC
*A* -8.88

*Q* Record: TCCT (dsDNA) DNA 1: GCTATCTAGTGCTCAGTACGCACTGTCCTAGGAAACTTCTGGCAGGACCAGGTCATGAGATCGGAAGAGCACACGTCTGAACTCCAGTCA DNA 2: TGACTGGAGTTCAGACGTGTGCTCTTCCGATCTCATGACCTGGTCCTGCCAGAAGTTTCCTAGGACAGTGCGTACTGAGCACTAGATAGC RNA: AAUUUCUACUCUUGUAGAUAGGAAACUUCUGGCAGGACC
*A* -8.39

The origin of these recorded values is paper PMC8222333.
